Origin of measurements: patent US10766884B2

- SYSTEM_NAME: UniProt:Q00534
- TEST_PROTOCOL: Phospho-Serine 795 Rb ELISA assay in MV4-11 cells
- Type: cell-based
- COND: overnight treatment, phospho-Rb S795, read-out: CDK6 pRB S795 ELISA MV4-11 cells IC50
QUANTITY_KIND: IC50 (nM)

CC1(C)COCc2nc3c(F)cc(-c4nc(N[C@@H]5CCOC[C@H]5O)ncc4F)cc3n21	318

[I] CC(C)n1c(C(C)(O)C2CC2)nc2c(F)cc(-c3nc(N[C@@H]4CCOC[C@H]4O)ncc3Cl)cc21 (single isomer, unassigned) [Example A23]
[II] CNCc1nc2c(F)cc(-c3nc(N[C@@H]4CCOC[C@H]4O)ncc3Cl)cc2n1C(C)C
[III] COCC(C)n1c(C)nc2c(F)cc(-c3nc(N[C@@H]4CCN(S(C)(=O)=O)C[C@H]4O)ncc3Cl)cc21 (single isomer, unassigned) [Example A73]
[IV] CC1CNCc2nc3c(F)cc(-c4nc(N[C@@H]5CCOC[C@H]5O)ncc4Cl)cc3n21 (single isomer, unassigned)
[V] CC1(C)OCCn2nc3c(F)cc(-c4nc(N[C@@H]5CCN(S(C)(=O)=O)C[C@H]5O)ncc4Cl)cc3c21
Challenge: // sort entries: IC50, high to low Field: ranking. Enter the labels in the order requested.
Response given: II, IV, III, I, V
(II: 408 nM, IV: 283 nM, III: 188 nM, I: 84.1 nM, V: 24.3 nM)

* * *

- SYSTEM_NAME: CDK4 (Homo sapiens (Human), UniProt P11802)
- Sequence (P11802 2-303): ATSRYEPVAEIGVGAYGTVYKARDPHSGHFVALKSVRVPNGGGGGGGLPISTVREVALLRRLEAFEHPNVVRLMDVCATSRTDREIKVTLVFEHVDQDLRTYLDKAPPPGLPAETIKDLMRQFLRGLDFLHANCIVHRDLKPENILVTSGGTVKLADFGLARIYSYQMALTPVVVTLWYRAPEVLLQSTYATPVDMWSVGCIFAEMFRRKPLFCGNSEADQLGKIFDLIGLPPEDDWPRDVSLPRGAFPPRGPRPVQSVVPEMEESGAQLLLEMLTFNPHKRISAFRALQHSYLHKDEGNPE
- Sequence (P24385 whole entry partner): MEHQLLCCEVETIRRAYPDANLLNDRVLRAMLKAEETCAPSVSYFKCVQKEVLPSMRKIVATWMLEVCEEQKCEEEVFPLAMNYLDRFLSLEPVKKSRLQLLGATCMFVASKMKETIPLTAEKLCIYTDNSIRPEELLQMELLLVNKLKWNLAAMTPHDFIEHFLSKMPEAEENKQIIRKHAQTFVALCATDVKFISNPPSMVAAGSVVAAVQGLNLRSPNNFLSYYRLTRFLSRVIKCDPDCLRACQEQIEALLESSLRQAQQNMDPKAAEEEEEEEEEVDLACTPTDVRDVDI
- TEST_PROTOCOL: Phospho-Serine 795 Rb ELISA assay in JEKO-1 cells
- COND: overnight treatment, phospho-Rb S795, read-out: CDK4 pRB S795 ELISA JEKO-1 cells IC50
QUANTITY_KIND: IC50 (nM)

CC(C)n1c(CN2CC(O)C2)nc2c(F)cc(-c3nc(N[C@@H]4CCOC[C@H]4O)ncc3Cl)cc21	155
C[C@@H](O)c1nc2c(F)cc(-c3nc(N[C@@H]4CCN(S(C)(=O)=O)C[C@H]4O)ncc3Cl)cc2n1C(C)(C)C	27.5
CC(=O)N1CC[C@@H](Nc2ncc(F)c(-c3cc(F)c4nc(C)n(C(C)C)c4c3)n2)[C@H](O)C1	675
Cn1nc2ccc(-c3nc(N[C@@H]4CCN(S(C)(=O)=O)C[C@H]4O)ncc3Cl)cc2c1C(C)(C)O	68.6
CC(C)NCc1nc2c(F)cc(-c3nc(N[C@@H]4CCOC[C@H]4O)ncc3Cl)cc2n1C(C)C	35.6
Cc1nc2c(F)cc(-c3nc(N[C@@H]4CCN(S(C)(=O)=O)C[C@H]4O)ncc3Cl)cc2n1CC(C)N (some centres unmarked)	85.5
CC(C)n1c(CC(N)C(F)F)nc2c(F)cc(-c3nc(N[C@@H]4CCOC[C@H]4O)ncc3Cl)cc21 (single isomer, unassigned) [Example A58]	33.1
CCc1nc2c(F)cc(-c3nc(N[C@@H]4CCN(S(C)(=O)=O)C[C@H]4O)ncc3Cl)cc2n1C1COC1	94.9

[P] CC(C)n1cnc2c(F)cc(-c3nc(N[C@@H]4CCN(C(=O)C5(N)CC(F)(F)C5)C[C@H]4O)ncc3Cl)cc21
[Q] CC(C)(C)n1cnc2c(F)cc(-c3nc(N[C@@H]4CCN(C(=O)C5(F)CNC5)C[C@H]4O)ncc3Cl)cc21
Challenge: # query: argmin of IC50 over P and Q # answer = label of selected item
Response given: Q
(Q: 143 nM, P: 246 nM)

[A] Cc1nc2c(F)cc(-c3nc(N[C@@H]4CCN(S(C)(=O)=O)C[C@H]4O)ncc3C#N)cc2n1C(C)C
[B] Cc1cc(-c2nc(N[C@@H]3CCN(S(C)(=O)=O)C[C@H]3O)ncc2F)cc2c1nc(C)n2C(C)C
Challenge: I'd appreciate it if you could identify which of A and B has the greater IC50. # answer = label of selected item
Response given: B
(B: 598 nM, A: 65.6 nM)

* * *

- SYSTEM_NAME: CDK6/Cyclin D3 (Homo sapiens (Human), UniProt Q00534)
- Sequence (Q00534 whole entry): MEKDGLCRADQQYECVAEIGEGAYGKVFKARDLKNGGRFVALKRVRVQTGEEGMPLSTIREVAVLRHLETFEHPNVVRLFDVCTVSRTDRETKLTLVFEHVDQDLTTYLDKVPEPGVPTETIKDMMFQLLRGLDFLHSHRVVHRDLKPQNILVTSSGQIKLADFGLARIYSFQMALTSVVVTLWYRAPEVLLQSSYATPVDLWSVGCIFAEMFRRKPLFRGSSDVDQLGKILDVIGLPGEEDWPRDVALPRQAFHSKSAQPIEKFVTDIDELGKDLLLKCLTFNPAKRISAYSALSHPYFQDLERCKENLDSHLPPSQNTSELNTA
- Sequence (P30281 whole entry partner): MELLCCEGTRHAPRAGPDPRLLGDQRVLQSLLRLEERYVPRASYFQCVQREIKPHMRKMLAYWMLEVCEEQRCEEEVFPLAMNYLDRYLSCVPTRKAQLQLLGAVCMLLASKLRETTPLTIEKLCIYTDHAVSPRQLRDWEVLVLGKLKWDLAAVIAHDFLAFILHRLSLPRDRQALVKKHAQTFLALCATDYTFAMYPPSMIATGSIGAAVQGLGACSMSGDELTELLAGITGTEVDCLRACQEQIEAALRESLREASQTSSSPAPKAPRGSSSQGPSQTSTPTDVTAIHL
- TEST_PROTOCOL: CDK6/Cyclin D3 mobility shift assay
- COND: activated CDK6/Cyclin D3, 3.5 mM ATP, Morrison fit; read-out: CDK6_D3 Ki
QUANTITY_KIND: Ki (nM)

Consider the following illustrative entries.
C[C@H](O)c1nc2c(F)cc(-c3nc(N[C@@H]4CCOC[C@H]4O)ncc3Cl)cc2n1C(C)(C)C	2.6
CNCC(=O)N1CC[C@@H](Nc2ncc(F)c(-c3cc(F)c4nc(C)n(C(C)C)c4c3)n2)[C@H](O)C1	11

[1] Cc1nc2c(F)cc(-c3nc(N[C@@H]4CCN(S(C)(=O)=O)C[C@H]4O)ncc3Cl)cc2n1C1COC1
[2] CCc1cnc(N[C@@H]2CCN(S(C)(=O)=O)C[C@H]2O)nc1-c1cc(F)c2nc(C)n(C(C)C)c2c1
Challenge: # query: argmin of Ki over 1 and 2 # answer = label of selected item
Response given: 1

[a] CC(C)n1c([C@H](C)O)nc2c(F)cc(-c3cc(N[C@@H]4CCOC[C@H]4O)ncc3Cl)cc21
[b] CN1CCC(Nc2ncc(F)c(-c3cc(F)c4ncn(C(C)(C)C)c4c3)n2)CC1
Challenge: I'd appreciate it if you could identify which of a and b has the greater Ki. # answer = label of selected item
Response given: b
(b: 17.3 nM, a: 9.3 nM)

* * *

- SYSTEM_NAME: UniProtKB Q00534
- TEST_PROTOCOL: Phospho-Serine 795 Rb ELISA assay in MV4-11 cells
- COND: overnight treatment, phospho-Rb S795, read-out: CDK6 pRB S795 ELISA MV4-11 cells IC50
QUANTITY_KIND: IC50 (nM)

[a] CC(C)n1c(CN2CC(F)C2)nc2c(F)cc(-c3nc(N[C@@H]4CCOC[C@H]4O)ncc3Cl)cc21
[b] Cc1nc2c(F)cc(-c3nc(N[C@@H]4CCOC[C@H]4O)ncc3Cl)cc2n1C(C)(C)CN
[c] CC(C)NCc1nc2c(F)cc(-c3nc(N[C@@H]4CCN(S(C)(=O)=O)C[C@H]4O)ncc3Cl)cc2n1C(C)C
Challenge: Sort the entries above by IC50, smallest first. Field: ranking. Enter the labels in the order requested.
Response given: c, a, b
(c: 51.1 nM, a: 343 nM, b: 973 nM)

[P] Cc1nc2c(F)cc(-c3nc(N[C@@H]4CCN(S(C)(=O)=O)C[C@H]4O)ncc3F)cc2n1C(C)C
[Q] Cc1nc2ccc(-c3cc(N[C@@H]4CCOC[C@H]4O)ncc3Cl)nc2n1C(C)C
Challenge: I'd appreciate it if you could identify which of P and Q has the greater IC50. # answer = label of selected item
Response given: Q

* * *

- SYSTEM_NAME: CDK6/Cyclin D3 (Homo sapiens (Human))
- TEST_PROTOCOL: CDK6/Cyclin D3 mobility shift assay
- COND: activated CDK6/Cyclin D3, 3.5 mM ATP, Morrison fit; read-out: CDK6_D3 Ki
pKi: −log10 of the molar value.
QUANTITY_KIND: pKi

CC(C)n1c(CN2CC(O)C2)nc2c(F)cc(-c3nc(N[C@@H]4CCOC[C@H]4O)ncc3Cl)cc21 [Example H03]	7.17
CC(C)(C)n1cnc2c(F)cc(-c3cc(N[C@@H]4CCN(C(=O)C(F)(F)CN)C[C@H]4O)ncc3Cl)cc21 [Example F32]	7.89
CC(C)n1c(C2CCO2)nc2c(F)cc(-c3nc(N[C@@H]4CCN(S(C)(=O)=O)C[C@H]4O)ncc3Cl)cc21 (single isomer, unassigned) [Example A31]	8.15
CNCc1nc2c(F)cc(-c3nc(N[C@@H]4CCOC[C@H]4O)ncc3Cl)cc2n1C(C)C [Example A44]	6.94

[A] CC1(C)CNCc2nc3c(F)cc(-c4nc(N[C@@H]5CCOC[C@H]5O)ncc4Cl)cc3n21 [Example A46]
[B] CC(C)n1c(C(C)(O)C2CC2)nc2c(F)cc(-c3nc(N[C@@H]4CCOC[C@H]4O)ncc3Cl)cc21 (single isomer, unassigned) [Example A24]
Challenge: I'd appreciate it if you could identify which of A and B has the greater pKi. # answer = label of selected item
Response given: B

[1] Cc1nc2cc(F)c(-c3nc(N[C@@H]4CCN(S(C)(=O)=O)C[C@H]4O)ncc3F)cc2n1C(C)C [Example A07]
[2] CS(=O)(=O)N1CC[C@@H](Nc2ncc(Cl)c(-c3cc(F)c4nc(CO)n(C5CCC5)c4c3)n2)[C@H](O)C1 [Example A65]
[3] CC(C)(F)Cn1c(CO)nc2c(F)cc(-c3nc(N[C@@H]4CCOC[C@H]4O)ncc3Cl)cc21 [Example A64]
Challenge: Would you mind ranking these compounds by ascending pKi? Field: ranking. Enter the labels in the order requested.
Response given: 1, 3, 2

[A] CC(C)n1cnc2c(F)cc(-c3nc(N[C@@H]4CCN(S(C)(=O)=O)C[C@H]4O)ncc3C(F)(F)F)cc21 [Example B02]
[B] COC(=O)N1CC[C@@H](Nc2ncc(F)c(-c3cc(F)c4nc(C)n(C(C)C)c4c3)n2)[C@H](O)C1 [Example F01]
[C] CC(C)n1c(CC(C)(C)N)nc2c(F)cc(-c3nc(N[C@@H]4CCOC[C@H]4O)ncc3Cl)cc21 [Example A45]
[D] CC(=O)c1nc2c(F)cc(-c3nc(N[C@@H]4CCN(S(C)(=O)=O)C[C@H]4O)ncc3Cl)cc2n1C(C)C [Example G01]
Challenge: Would you mind ranking these compounds by ascending pKi? Field: ranking. Enter the labels in the order requested.
Response given: C, A, B, D
(C: 7.28, A: 7.57, B: 7.84, D: 8.23)

[1] Cc1nc2c(F)cc(-c3nc(N[C@@H]4CCOC[C@H]4O)ncc3Cl)cc2n1C(C)(C)CN [Example A52]
[2] CC(C)(O)c1nc2c(F)cc(-c3nc(N[C@@H]4CCOC[C@H]4O)ncc3Cl)cc2n1CC(F)F [Example A67]
Challenge: I'd appreciate it if you could identify which of 1 and 2 has the greater pKi. # answer = label of selected item
Response given: 2
(2: 7.81, 1: 7.22)

[I] CC(C)n1c(C(N)=O)nc2c(F)cc(-c3nc(N[C@@H]4CCOC[C@H]4O)ncc3Cl)cc21 [Example A33]
[II] CC1(n2c(CO)nc3c(F)cc(-c4nc(N[C@@H]5CCOC[C@H]5O)ncc4Cl)cc32)CC1 [Example A63]
Challenge: I'd appreciate it if you could identify which of I and II has the greater pKi. # answer = label of selected item
Response given: II

[a] CC1(C)COCc2nc3c(F)cc(-c4nc(N[C@@H]5CCOC[C@H]5O)ncc4F)cc3n21 [Example A19]
[b] Cc1nc2ccc(-c3nc(N[C@@H]4CCN(S(C)(=O)=O)C[C@H]4O)ncc3Cl)nc2n1C(C)C [Example A86]
Challenge: # query: argmin of pKi over a and b # answer = label of selected item
Response given: b
(b: 7.63, a: 7.84)

[1] Cc1nc2ccc(-c3cc(N[C@@H]4CCN(S(C)(=O)=O)C[C@H]4O)ncc3Cl)nc2n1C(C)C [Example D04]
[2] C[C@@H](N)c1nc2c(F)cc(-c3nc(N[C@@H]4CCOC[C@H]4O)ncc3Cl)cc2n1C(C)(C)C [Example A42]
[3] CC(=O)N1CC[C@@H](Nc2ncc(F)c(-c3cc(F)c4nc(C)n(C(C)C)c4c3)n2)[C@H](O)C1 [Example F16]
Challenge: // sort entries: pKi, high to low Field: ranking. Enter the labels in the order requested.
Response given: 1, 3, 2

[A] CC1(C)OCCn2nc3c(F)cc(-c4nc(N[C@@H]5CCOC[C@H]5O)ncc4Cl)cc3c21 [Example A27]
[B] C[C@@H](O)c1nc2c(F)cc(-c3nc(N[C@@H]4CCN(S(C)(=O)=O)C[C@H]4O)ncc3Cl)cc2n1C(C)(C)C [Example A62]
[C] CN1Cc2nc3c(F)cc(-c4nc(N[C@@H]5CCOC[C@H]5O)ncc4Cl)cc3n2C(C)(C)C1 [Example A22]
Challenge: Would you mind ranking these compounds by ascending pKi? Field: ranking. Enter the labels in the order requested.
Response given: C, A, B
(C: 7.30, A: 7.80, B: 8.10)
